target: T1, human TMEM106B (human, UniProt Q9NUM4 2-274); assay: FACS HEK+huTMEM, 0.1 ug/ml;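 also: flow cytometry binding of purified mouse IgG antibodies to HEK293 cells transiently expressing TMEM106B, read as median fluorescence intensity with propidium iodide positive dead cells gated out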
T1 construct: Full-length, on transiently transfected HEK293 cells, or natively expressed on HeLa, U251 and A549 cells; also called huTMEM106B; huTMEM
measurement_type: MFI

| binder | readout_value |
| --- | --- |
| anti-TMEM106B antibody TM-29 (antibody, V domains shown) VH: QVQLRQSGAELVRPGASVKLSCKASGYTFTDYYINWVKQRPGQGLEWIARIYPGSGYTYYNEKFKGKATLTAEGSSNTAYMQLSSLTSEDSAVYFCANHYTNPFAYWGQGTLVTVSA VL: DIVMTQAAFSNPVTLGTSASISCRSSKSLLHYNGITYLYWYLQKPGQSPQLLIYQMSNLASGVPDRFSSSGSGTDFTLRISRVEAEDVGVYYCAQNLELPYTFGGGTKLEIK | 24400 |
| anti-TMEM106B antibody TM-42 (antibody, V domains shown) VH: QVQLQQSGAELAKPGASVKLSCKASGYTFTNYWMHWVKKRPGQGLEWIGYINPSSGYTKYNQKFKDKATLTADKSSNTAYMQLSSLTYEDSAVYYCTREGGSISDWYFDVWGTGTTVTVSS VL: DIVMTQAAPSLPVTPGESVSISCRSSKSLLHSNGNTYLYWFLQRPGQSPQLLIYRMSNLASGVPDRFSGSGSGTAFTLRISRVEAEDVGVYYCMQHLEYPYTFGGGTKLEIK | 16700 |
| anti-TMEM106B antibody TM-27 (antibody, V domains shown) VH: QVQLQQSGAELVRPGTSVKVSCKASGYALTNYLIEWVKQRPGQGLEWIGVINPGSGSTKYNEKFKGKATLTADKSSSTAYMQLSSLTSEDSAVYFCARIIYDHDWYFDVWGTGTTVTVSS VL: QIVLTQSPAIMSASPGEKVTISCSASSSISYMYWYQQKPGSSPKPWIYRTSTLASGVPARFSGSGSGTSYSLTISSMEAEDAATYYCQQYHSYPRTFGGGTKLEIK | 1700 |
